- assayedTarget: human ALPP (recombinant protein) (human, UniProt P05187 23-506, limits assumed)
- Sequence (P05187 23-506 limits assumed): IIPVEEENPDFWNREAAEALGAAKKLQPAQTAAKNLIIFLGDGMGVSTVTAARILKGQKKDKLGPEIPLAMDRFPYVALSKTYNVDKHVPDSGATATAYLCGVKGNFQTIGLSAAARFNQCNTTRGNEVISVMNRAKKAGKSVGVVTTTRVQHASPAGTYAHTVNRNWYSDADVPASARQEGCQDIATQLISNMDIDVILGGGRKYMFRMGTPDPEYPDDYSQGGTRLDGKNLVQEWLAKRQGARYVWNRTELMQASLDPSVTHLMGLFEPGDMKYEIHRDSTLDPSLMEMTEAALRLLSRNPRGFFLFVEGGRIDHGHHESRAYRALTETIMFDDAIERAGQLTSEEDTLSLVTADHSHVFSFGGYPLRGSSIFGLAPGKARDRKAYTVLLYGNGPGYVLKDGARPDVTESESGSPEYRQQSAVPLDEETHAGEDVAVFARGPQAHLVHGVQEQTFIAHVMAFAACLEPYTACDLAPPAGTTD
- procedureText: SPR, Biacore T200, ligand captured by streptavidin on CM5 chip, antibody as analyte
- Experimental: Select clones (C4, C15, C131, C12, C18, C36 and C53) were humanized by grafting the CDRs to a human IgG1 framework. […] Surface plasmon resonance was studied using Biacore T200. Ligands (e.g. ALPPL2 or ALPP) were immobilized on biosensors CM5 chips captured with the streptavidin. Ligands-loaded sensors were then incubated with different concentrations of analyte (recombinant expressed humanized antibody clones) to measure affinity.

binder: humanized C12 (antibody, human IgG1, V domains shown, CDRs grafted to a human IgG1 framework; recombinant; also called hC12) VH: EVQLVESGGGLVQPGGSLRLSCAASGFSFSSSYWISWVRQAPGKGLEWIACIAIGSSGTTYYASWAKGRFTISRDNSKNTLYLQMNSLRAEDTAVYYCARSGDGYTYVELWGQGTLVTVSS VL: DIQMTQSPSSLSASVGDRVTITCQASQSISSYLAWYQQKPGKVPKLLIYRASTLASGVPSRFSGSGSGTDFTLTISSLQPEDVATYYCQNYYDIDDSDNTFGQGTKVEIK
binding result: binds

binder: humanized C36 (antibody, human IgG1, V domains shown, CDRs grafted to a human IgG1 framework; recombinant; also called hC36) VH: EVQLVESGGGLVQPGGSLRLSCAASGFSFSSGYNICWVRQAPGKGLELIACIYTSSSGSTYYASWAKGRFTISRDNSKNTLYLQMNSLRAEDTAVYYCARGEAYYAYGYVGYAYYHGAFDPWGQGTLVTVSS VL: DIQMTQSPSSLSASVGDRVTITCQASHSISKYFSWYQQKPGKVPKLLIYEASTLASGVPSRFSGSGSGTDFTLTISSLQPEDVATYYCQSYYYGTSSSYAFGQGTKVEIK
binding result: binds

The reported numbers originate from patent US20230080224A1.
